assayed_system: canine TRPM8 (Canis lupus familiaris, UniProt Q1A7N1)
Sequence (Q1A7N1 1-1104): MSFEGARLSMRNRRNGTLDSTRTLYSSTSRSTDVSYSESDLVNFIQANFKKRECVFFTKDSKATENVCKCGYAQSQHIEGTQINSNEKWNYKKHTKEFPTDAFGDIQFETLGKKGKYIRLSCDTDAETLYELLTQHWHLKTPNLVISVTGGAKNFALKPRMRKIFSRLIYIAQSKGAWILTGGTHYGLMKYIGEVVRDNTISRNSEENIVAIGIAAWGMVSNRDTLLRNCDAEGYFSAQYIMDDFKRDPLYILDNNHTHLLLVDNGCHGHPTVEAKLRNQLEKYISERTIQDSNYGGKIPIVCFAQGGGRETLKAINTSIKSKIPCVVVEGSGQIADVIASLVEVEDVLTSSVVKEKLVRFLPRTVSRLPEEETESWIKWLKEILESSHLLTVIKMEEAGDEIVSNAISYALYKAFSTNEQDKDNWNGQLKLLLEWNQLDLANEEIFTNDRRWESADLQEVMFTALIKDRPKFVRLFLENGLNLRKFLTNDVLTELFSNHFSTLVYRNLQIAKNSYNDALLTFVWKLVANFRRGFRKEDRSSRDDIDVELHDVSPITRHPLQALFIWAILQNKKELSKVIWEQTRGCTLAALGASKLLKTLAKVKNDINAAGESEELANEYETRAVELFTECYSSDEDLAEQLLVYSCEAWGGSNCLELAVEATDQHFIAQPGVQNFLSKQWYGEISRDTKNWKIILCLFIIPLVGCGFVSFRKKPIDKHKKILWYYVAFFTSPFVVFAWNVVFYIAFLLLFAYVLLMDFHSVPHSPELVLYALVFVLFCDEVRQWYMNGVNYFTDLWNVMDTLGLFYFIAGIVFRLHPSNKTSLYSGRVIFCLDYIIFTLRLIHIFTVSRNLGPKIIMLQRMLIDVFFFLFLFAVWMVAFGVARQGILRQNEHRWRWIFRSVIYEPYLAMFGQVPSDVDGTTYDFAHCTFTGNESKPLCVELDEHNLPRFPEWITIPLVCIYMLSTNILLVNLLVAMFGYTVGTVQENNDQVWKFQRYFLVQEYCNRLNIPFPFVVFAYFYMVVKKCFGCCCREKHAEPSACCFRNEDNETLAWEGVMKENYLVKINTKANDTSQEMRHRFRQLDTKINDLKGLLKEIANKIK
experiment_notes: In vitro canine TRPM8 functional assay (Ca2+-sensitive fluorescent dye, icilin activation)
Assay type: cell-based
condition_summary: 0.2 μM compound; HEK293 cells stably expressing canine TRPM8; icilin-induced Ca2+ response
Structures can show the parent of a compound that is named as a salt.
metric_name: inhibition at 0.2 µM (%)

- Cn1nc(C(C)(C)C)c(Cl)c1-c1nc2cc(-c3ccccc3C(F)(F)F)nc(OCC(F)(F)F)c2[nH]1: 100
- Cn1nc(C(C)(C)C)c(Cl)c1-c1nc2nc(-c3ccccc3OC(F)(F)F)cnc2[nH]1: 99
- CC(C)(C)c1cc(-c2nc3nc(-c4ccccc4Cl)ccc3[nH]2)on1: 100
- COc1nc(-c2ccccc2Cl)cc2nc(-c3csc(C(C)C)c3)[nH]c12: 100
- Cn1nc(C(C)(C)C)cc1-c1nc2cc(-c3ccccc3F)ncc2[nH]1 [Compound 42, hydrochloride]: 75

====

assayed_system: canine TRPM8 (Canis lupus familiaris, UniProt Q1A7N1)
experiment_notes: In vitro canine TRPM8 functional assay (Ca2+-sensitive fluorescent dye, icilin activation)
Assay type: cell-based
condition_summary: HEK293 cells stably expressing canine TRPM8; icilin-induced Ca2+ response; eight-point concentration-response
pIC50: −log10 of the molar value. Counter-ions that a name gives are not always drawn.
Decide by pIC50: equal to or exceeding 8 means satisfied, less means not satisfied.

• Cn1nc(C(C)(C)C)cc1-c1nc2cc(-c3ccccc3Cl)ncc2[nH]1 [Compound 41, hydrochloride] = not satisfied
• Cn1nc(C(C)(C)C)cc1-c1nc2nc(-c3ccccc3Cl)ccc2[nH]1 [Compound 27] = not satisfied
• Cn1nc(C(C)(C)C)c(Cl)c1-c1nc2cc(-c3ccccc3Cl)nc(OCC(F)(F)F)c2[nH]1 [Compound 89, sodium salt] = satisfied
• COc1nc(-c2ccccc2C(F)(F)F)cc2nc(-c3cc(C(C)(C)C)nn3C)[nH]c12 [Compound 80] = not satisfied
• CC(C)(C)c1cc(-c2nc3nc(-c4ccccc4C(F)(F)F)ccc3[nH]2)on1 [Compound 31] = not satisfied
• COc1nc(-c2ccccc2Cl)cc2nc(-c3cnn(C(C)(C)C)c3)[nH]c12 [Compound 102, sodium salt] = not satisfied
• Cn1nc(C(C)(C)C)c(C#N)c1-c1nc2cc(-c3ccccc3C(F)(F)F)ncc2[nH]1 [Compound 45, hydrochloride] = not satisfied
• COCCOc1nc(-c2ccccc2C(F)(F)F)cc2nc(-c3c(Cl)c(C(C)(C)C)nn3C)[nH]c12 [Compound 20] = satisfied
• Cn1nc(C(C)(C)C)c(Cl)c1-c1nc2cc(-c3ccccc3C(F)(F)F)nc(OCCO)c2[nH]1 [Compound 57] = satisfied
• COc1cc(-c2ccccc2C(F)(F)F)nc2nc(-c3cc(C(C)(C)C)nn3C)[nH]c12 [Compound 81, hydrochloride] = not satisfied
• CC(C)Oc1nc(-c2ccccc2C(F)(F)F)cc2nc(-c3c(C#N)c(C(C)(C)C)nn3C)[nH]c12 [Compound 14] = satisfied
• Cn1nc(C(C)(C)C)c(Cl)c1-c1nc2nc(-c3ccccc3C(F)(F)F)cc(C(F)(F)F)c2[nH]1 [Compound 1] = not satisfied

====

assayed_system: canine TRPM8 (Canis lupus familiaris)
experiment_notes: In vitro canine TRPM8 functional assay (Ca2+-sensitive fluorescent dye, icilin activation)
Assay type: cell-based
condition_summary: HEK293 cells stably expressing canine TRPM8; icilin-induced Ca2+ response; eight-point concentration-response
Counter-ions that a name gives are not always drawn.
List of IC50 values.
metric_name: IC50 (nM)

- CC(C)(C)c1cc(-c2nc3nc(-c4ccccc4C(F)(F)F)cc(C(F)(F)F)c3[nH]2)on1 [Compound 10]: 16
- COc1nc(-c2ccccc2Cl)cc2nc(-c3cc(C(C)(C)C)nn3C)[nH]c12 [Compound 12]: 11
- CN1CCN(c2nc(-c3ccccc3C(F)(F)F)cc3nc(-c4c(Cl)c(C(C)(C)C)nn4C)[nH]c23)CC1 [Compound 28]: 11
- Cn1nc(C(C)(C)C)c(Cl)c1-c1nc2nc(-c3ccccc3OC(F)(F)F)ccc2[nH]1 [Compound 25, hydrochloride]: 12
- COc1nc(-c2ccccc2C(F)(F)F)cc2nc(-c3c(F)c(C(C)(C)C)nn3C)[nH]c12 [Compound 78]: 16
- COc1nc(-c2ccccc2OC(F)(F)F)cc2nc(-c3c(Cl)c(C(C)(C)C)nn3C)[nH]c12 [Compound 2, sodium salt]: 13
